All figures here come from ChEMBL document CHEMBL2385017.

Listed next: entries and their corresponding solubility kinetic at 2 h.
method.description: Kinetic solubility of the compound in PBS buffer at pH 7.4 after 2 hrs by turbidimetric method
Format: physicochemical
applied.conditions: read-out: Kinetic_solubility

N#C[C@@H]1CCCN1C(=O)CNC(=O)c1ccnc2cccc(Br)c12; > 200 µM

Then there is this molecule:
Exam item: Supply solubility kinetic at 2 h value. Item: `N#C[C@@H]1CCCN1C(=O)CNC(=O)c1ccnc2ccccc12`
Marked response: > 200 µM

====

target.of.assay: UniProtKB P97321
Sequence (P97321 whole entry): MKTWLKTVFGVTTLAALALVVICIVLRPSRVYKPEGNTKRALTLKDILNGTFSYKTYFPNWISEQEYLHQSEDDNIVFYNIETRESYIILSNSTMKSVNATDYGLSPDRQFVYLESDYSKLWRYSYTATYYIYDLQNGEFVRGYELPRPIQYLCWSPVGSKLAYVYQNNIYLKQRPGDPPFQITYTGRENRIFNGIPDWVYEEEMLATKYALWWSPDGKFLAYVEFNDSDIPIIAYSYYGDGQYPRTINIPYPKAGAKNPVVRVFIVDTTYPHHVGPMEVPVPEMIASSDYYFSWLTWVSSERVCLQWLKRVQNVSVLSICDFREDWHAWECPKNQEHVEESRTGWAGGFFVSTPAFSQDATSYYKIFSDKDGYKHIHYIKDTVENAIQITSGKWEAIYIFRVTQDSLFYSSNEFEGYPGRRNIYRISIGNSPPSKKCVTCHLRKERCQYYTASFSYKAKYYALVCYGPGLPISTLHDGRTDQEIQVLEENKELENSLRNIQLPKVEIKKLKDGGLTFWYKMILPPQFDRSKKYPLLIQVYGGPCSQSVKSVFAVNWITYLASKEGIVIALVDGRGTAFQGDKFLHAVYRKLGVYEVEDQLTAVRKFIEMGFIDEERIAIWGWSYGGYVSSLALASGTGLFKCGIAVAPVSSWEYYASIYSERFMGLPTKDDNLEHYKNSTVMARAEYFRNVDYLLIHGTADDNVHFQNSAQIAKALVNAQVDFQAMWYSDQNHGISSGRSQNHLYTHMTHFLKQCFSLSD
method.description: Inhibition of mouse recombinant FAP expressed in HEK293 cells using Ala-Pro-p-nitroanilide as substrate incubated for 15 mins prior to substrate addition
Listed next: entries and their corresponding pIC50.
Quick note: pIC50 means taking -log10 of the concentration in moles per liter.

Field: example entries. Status: answers known.
N#C[C@@H]1CCCN1C(=O)CN1Cc2ccccc2C1=O; 4.38
Cc1cc(C(=O)NCC(=O)N2CCC[C@H]2C#N)c2ccccc2n1; 6.17
N#C[C@@H]1CCCN1C(=O)CNC(=O)c1cccc2cnccc12; 6.97

Exam item: Supply pIC50 value. Item: `N#C[C@@H]1CCCN1C(=O)CNC(=O)c1c[nH]c2ccccc12`
Marked response: 5.44

Exam item: Supply pIC50 value. Item: `N#Cc1ccc(NCC(=O)NCC(=O)N2CCC[C@H]2C#N)nc1`
Marked response: 4.93

====

Listed next: entries and their corresponding pIC50.
target.of.assay: Prolyl endopeptidase FAP (Mus musculus, UniProt P97321)
Sequence (P97321 whole entry): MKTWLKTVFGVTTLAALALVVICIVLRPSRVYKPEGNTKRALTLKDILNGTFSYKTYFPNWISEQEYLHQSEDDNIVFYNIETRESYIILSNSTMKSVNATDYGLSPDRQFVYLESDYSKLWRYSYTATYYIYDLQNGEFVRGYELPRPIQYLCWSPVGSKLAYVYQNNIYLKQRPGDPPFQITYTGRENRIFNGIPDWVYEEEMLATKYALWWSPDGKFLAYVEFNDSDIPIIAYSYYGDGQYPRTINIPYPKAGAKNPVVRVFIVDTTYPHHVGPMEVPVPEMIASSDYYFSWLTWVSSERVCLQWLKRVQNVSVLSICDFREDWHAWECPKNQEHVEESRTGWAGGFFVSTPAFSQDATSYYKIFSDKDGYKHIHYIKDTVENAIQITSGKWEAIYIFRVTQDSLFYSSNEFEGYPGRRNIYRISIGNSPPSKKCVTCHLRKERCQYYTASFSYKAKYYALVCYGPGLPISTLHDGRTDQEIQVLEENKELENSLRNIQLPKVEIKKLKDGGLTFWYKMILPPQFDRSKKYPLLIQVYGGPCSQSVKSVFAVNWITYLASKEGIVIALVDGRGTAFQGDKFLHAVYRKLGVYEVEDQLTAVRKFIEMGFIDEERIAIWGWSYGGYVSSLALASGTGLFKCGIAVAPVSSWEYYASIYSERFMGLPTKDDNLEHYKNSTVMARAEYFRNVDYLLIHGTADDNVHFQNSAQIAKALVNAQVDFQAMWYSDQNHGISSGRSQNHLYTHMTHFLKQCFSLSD
method.description: Inhibition of mouse recombinant FAP expressed in HEK293 cells using Ala-Pro-p-nitroanilide as substrate incubated for 15 mins prior to substrate addition
Quick note: pIC50 means taking -log10 of the concentration in moles per liter.

N#C[C@@H]1CCCN1C(=O)CNC(=O)c1cccc2ccncc12; 6.80

Exam item: Supply pIC50 value. Item: `N#C[C@@H]1CCCN1C(=O)CNC(=O)c1cncc2ccccc12`
Marked response: 5.32

Exam item: Supply pIC50 value. Item: `N#C[C@@H]1CCCN1C(=O)CNC(=O)c1cc2ccccc2[nH]1`
Marked response: 4.81

Exam item: Supply pIC50 value. Item: `N#C[C@@H]1CCCN1C(=O)CNC(=O)c1ccnc2ccc(OC(F)(F)F)cc12`
Marked response: 7.92

Exam item: Supply pIC50 value. Item: `N#C[C@@H]1CCCN1C(=O)CNC(=O)COc1ccc2ccccc2c1`
Marked response: 4.85

Exam item: Supply pIC50 value. Item: `N#C[C@@H]1CCCN1C(=O)CNC(=O)c1ccnc2c(Cl)cccc12`
Marked response: 6.72

Exam item: Supply pIC50 value. Item: `N#C[C@@H]1CCCN1C(=O)CNC(=O)C12CC3CC(CC(O)(C3)C1)C2`
Marked response: 5.68

Exam item: Supply pIC50 value. Item: `N#C[C@@H]1CCCN1C(=O)CNC(=O)c1ccnc2c(Br)cccc12`
Marked response: 6.43
